Reported Population Mitochondria Different-Phenotype (%) values follow for various compounds
System: Fibroblast
Assay: Multiplex assay against human fibroblast
Format: toxicity, cell-based
Settings: 24 h, 10 µM, compound concentration 10 uM, replicate 1
Non-standard residues stand in square brackets, D forms with d. Residues, ends and D or L forms follow the SMILES beside them.
The response must be a number in % with no trailing unit.

Known results for compounds:
>>> value("Cc1cc(-c2ccc3c(c2)CC[C@H]3N2CC3(CCN(C(=O)Cc4cn5cc(C)sc5n4)CC3)C2)ncn1")
6
>>> value("CCC(=O)OCC(=O)[C@@]1(OC(=O)CC)[C@@H](C)C[C@H]2[C@@H]3CCC4=CC(=O)C=C[C@]4(C)[C@@]3(Cl)[C@@H](O)C[C@@]21C [BECLOMETHASONE DIPROPIONATE]")
30
>>> value("CCCCC[C@H](O)/C=C/[C@H]1[C@H](O)CC(=O)[C@@H]1CCCCCCC(=O)O")
2
>>> value("COc1ccc2[nH]c(I)c(CCNC(C)=O)c2c1")
4
>>> value("Cc1c(Cc2ccc3ccccc3n2)c2cc(F)ccc2n1CC(=O)O")
6

Exercise: Consider the compound CN1C[C@H](C(=O)N[C@]2(C)O[C@@]3(O)[C@@H]4CCCN4C(=O)[C@H](Cc4ccccc4)N3C2=O)C[C@@H]2c3cccc4[nH]cc(c34)C[C@H]21.CS(=O)(=O)O [DIHYDROERGOTAMINE MESYLATE] and give its recorded Population Mitochondria Different-Phenotype (%).
Solution: 1

Exercise: In one line, give reported Population Mitochondria Different-Phenotype (%) of the entry `COc1cc(C(=O)N2CC[C@@H](O)[C@@H](N)C2)cc2nc(-c3cc4ccccc4n3CC3CC3)n(C)c12.Cl` .
Solution: 55

Exercise: Output measured Population Mitochondria Different-Phenotype (%) for this item: CC(C)C[C@@H]1NC(=O)[C@@H](C(C)C)NC(=O)[C@@H]2CCCN2C(=O)[C@@H](CC(=O)O)NC(=O)[C@@H](Cc2c[nH]c3ccccc23)NC1=O [BQ-123] (cyclo(L[dW][dD]P[dV]))
Solution: 5

* * *

System: U2OS
Assay: Multiplex assay against U2OS
Type: toxicity, cell-based
Conditions: human, 12 h, 10 µM, compound concentration 10 uM, replicate 1
Give t when the value for Total Cell Count is at least 300. Give f when it is less.

>>> label_value("COc1cc(C(=O)N2CC[C@@H](O)[C@@H](N)C2)cc2nc(-c3cc4ccccc4n3CC3CC3)n(C)c12.Cl")
"f"
>>> label_value("Cl.Cl.OCCOCCN1CCN(C(c2ccccc2)c2ccc(Cl)cc2)CC1 (configuration not stated) [HYDROXYZINE HYDROCHLORIDE]")
"t"
>>> label_value("CN1CCN2c3ccccc3Cc3ccccc3C2C1.Cl (configuration not stated) [MIANSERIN HYDROCHLORIDE]")
"f"
>>> label_value("COc1ccc2c(c1OCc1ccccc1)C[C@@H](C(=O)O)N(C(=O)C(c1ccccc1)c1ccccc1)C2")
"f"

Then there is this molecule:
Exercise: Tell me whether Total Cell Count is at least 300 here: O=C(O)CCC/C=C\CC1C(O)CC(O)C1/C=C/C(O)COc1cccc(Cl)c1 (configuration not stated)
Solution: f

* * *

System: Fibroblast
Assay: Multiplex assay against human fibroblast
Type: toxicity, cell-based
Details: 24 h, 10 µM, compound concentration 10 uM, replicate 2
readout kind: Total Cell Count
# respond with the number and nothing more

Check out these entries, answers already filled in.
>>> value("Cc1cc(-c2ccc3c(c2)CC[C@H]3N2CC3(CCN(C(=O)Cc4cn5cc(C)sc5n4)CC3)C2)ncn1")
134
>>> value("CN(C)C/C=C/C(=O)Nc1ccc(C(=O)N2CCCC(Nc3ncc(Cl)c(-c4c[nH]c5ccccc45)n3)C2)cc1 (centres undefined)")
149
>>> value("CN(C)C(=O)Cn1cc(-c2ccc(-c3nnc4ccccn34)cc2)cn1")
126

Exercise: Fetch value of Total Cell Count on Fibroblast for `CC(C)(O)C(=O)N1CCN(c2ccc(C(F)(F)F)c(C3=C(c4c[nH]c5ccccc45)C(=O)NC3=O)c2)CC1` .
Solution: 138

* * *

Test system: Fibroblast
Assay: Multiplex assay against human fibroblast
Type: toxicity, cell-based
Conditions: 48 h, 1 µM, compound concentration 1 uM, replicate 2
Measured Population Mitochondria Different-Phenotype (%) by item
// note: answer is a bare numeric in %

// solved cases for Population Mitochondria Different-Phenotype (%) follow
>>> value("CN(C)C(=O)Cn1cc(-c2ccc(-c3nnc4ccccn34)cc2)cn1")
2
>>> value("CN1CCN2c3ccccc3Cc3ccccc3C2C1.Cl (stereo not drawn) [MIANSERIN HYDROCHLORIDE]")
10
>>> value("Nc1nc(-c2ccco2)c2cnn(Cc3ccccc3F)c2n1")
9
>>> value("CCc1nn2c(C)cc(C)nc2c1Cc1ccc(-c2nnc(C3CCNCC3)o2)cc1")
12
>>> value("COc1ccc2[nH]c(I)c(CCNC(C)=O)c2c1 [IODOMELATONIN]")
0
>>> value("O=C(O)CCC/C=C\\CC1C(O)CC(O)C1/C=C/C(O)COc1cccc(Cl)c1 (stereo not drawn) [CLOPROSTENOL]")
10
>>> value("S=C(NCCCc1c[nH]cn1)NCCCN(Cc1ccc(Cl)c(Cl)c1)c1ccc(Br)cn1")
3
>>> value("Cc1cc(NC(=O)NCCN2CCC(O)(Cc3ccccc3)CC2)c2ccccc2n1 [PALOSURAN]")
14

Exercise: State, in one line, measured Population Mitochondria Different-Phenotype (%) of `COc1cc2nc(N3CCN(C(=O)COc4c(OC)cccc4C(C)C)CC3)nc(N)c2cc1OC.Cl.Cl`
Solution: 10

Exercise: In one line, give reported Population Mitochondria Different-Phenotype (%) of the entry `C[C@H](NC(=O)CNC(=O)c1cccc(Cl)c1)c1ccccc1` .
Solution: 2

* * *

Test system: Fibroblast
Assay: Multiplex assay against human fibroblast
Assay type: toxicity, cell-based
Details: 48 h, 10 µM, compound concentration 10 uM, replicate 2
readout kind: Population Tubulin-Different-Phenotype (%)
Write the value in % as a bare number.

// worked examples, Population Tubulin-Different-Phenotype (%) included
>>> value("COc1cc(Nc2ncc3c(n2)-c2ccc(Cl)cc2C(c2c(F)cccc2OC)=NC3)ccc1C(=O)O [ALISERTIB]")
65
>>> value("CN1C[C@H](C(=O)N[C@]2(C)O[C@@]3(O)[C@@H]4CCCN4C(=O)[C@H](Cc4ccccc4)N3C2=O)C[C@@H]2c3cccc4[nH]cc(c34)C[C@H]21.CS(=O)(=O)O [DIHYDROERGOTAMINE MESYLATE]")
55

// below: Population Tubulin-Different-Phenotype (%) requested for another compound
Exercise: Provide Population Tubulin-Different-Phenotype (%) value for the following compound: `C[C@@H]1CC(=O)Nc2cccc(-c3ccc4c(c3)c(-c3cnn(C)c3)nn4C)c2N1`
Solution: 69

* * *

System: U2OS
Experiment: Multiplex assay against U2OS
Format: toxicity, cell-based
Details: human, 12 h, 1 µM, compound concentration 1 uM, replicate 2
Please assign FALSE whenever Population Mitotic Cells (%) is at or above 20%, and TRUE whenever it is below.

Please review the following examples before continuing.
>>> label_value("C[C@H](NC(=O)CNC(=O)c1cccc(Cl)c1)c1ccccc1")
"FALSE"
>>> label_value("CN(C)C/C=C/C(=O)Nc1ccc(C(=O)N2CCCC(Nc3ncc(Cl)c(-c4c[nH]c5ccccc45)n3)C2)cc1 (configuration not stated)")
"TRUE"
>>> label_value("COC(c1ccccc1)(c1ccccc1)[C@H](Oc1nc(C)cc(C)n1)C(=O)O [AMBRISENTAN]")
"TRUE"

Exercise: Does `Cc1cc(O)c(-c2ccc([C@@H](C)CN(C)C)cc2)c2c1[nH]c(=O)c1sccc12` have Population Mitotic Cells (%) strictly under 20%?
Solution: FALSE

Exercise: I'd appreciate it if you could check whether O=c1ccc2ccc(OCCCCN3CCN(c4cccc5sccc45)CC3)cc2[nH]1 [BREXPIPRAZOLE] has Population Mitotic Cells (%) smaller than 20%.
Solution: FALSE

Exercise: Take the compound `CN1CCN(c2ccc(Nc3c4ccccc4nc4ccccc34)cc2)CC1.Cl.Cl.O` and say whether its Population Mitotic Cells (%) is less than 20%.
Solution: TRUE

Exercise: Lab note: confirm whether the reported Population Mitotic Cells (%) for this compound is below 20%, equality not counting. compound: CC(C)(C)c1ccc(CSc2cnn(C(C)(C)C)c(=O)c2Cl)cc1 [PYRIDABEN]
Solution: FALSE

Exercise: Given `Cc1nn(C)c2nc(NNC(=O)Nc3cc(Cl)nc(Cl)c3)cc(C(C)C)c12` , is recorded Population Mitotic Cells (%) strictly lower than 20%?
Solution: FALSE

Exercise: Is the reported Population Mitotic Cells (%) for COc1ccc2[nH]c(I)c(CCNC(C)=O)c2c1 [IODOMELATONIN] strictly below 20%?
Solution: FALSE
